Provenance of the data: ChEMBL document CHEMBL1142893

# EXPERIMENTAL_SYSTEM: Human immunodeficiency virus type 1 integrase (Human immunodeficiency virus 1, UniProt Q7ZJM1)
# Sequence (Q7ZJM1 whole entry): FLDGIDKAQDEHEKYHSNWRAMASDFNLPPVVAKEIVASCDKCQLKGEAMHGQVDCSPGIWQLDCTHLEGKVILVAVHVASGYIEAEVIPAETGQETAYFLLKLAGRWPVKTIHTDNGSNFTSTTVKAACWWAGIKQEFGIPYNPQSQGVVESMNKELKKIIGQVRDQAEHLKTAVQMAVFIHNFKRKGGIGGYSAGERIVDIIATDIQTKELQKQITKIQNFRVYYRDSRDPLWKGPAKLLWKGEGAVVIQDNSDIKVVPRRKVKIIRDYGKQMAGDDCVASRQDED
# ASSAY_EXPLANATION: Inhibition of HIV1 integrase strand transfer activity
pIC50: −log10 of the molar value.
MEASURE: pIC50

Please review the following examples before continuing.
INSERT INTO assay_data (chem_smiles, reported_measurement) VALUES
  ('N#Cc1ccc2[nH]c(=O)c3ccccc3c2c1', 3.40),
  ('Cc1cccc2c1[nH]c(=O)c1ccc(C#N)cc12', 3.30);

P = O=C(O)C(=O)CC(=O)c1c2ccccc2cc2ccccc12
Q = O=c1[nH]c2ccc(C(F)(F)F)cc2c2ccccc12
Task: Recorded pIC50 values differ for P and Q ; which one is higher? I would appreciate it if you answered with the label of your choice.
Output: P
(P: 5.77, Q: 3.05)

====

# EXPERIMENTAL_SYSTEM: Human immunodeficiency virus type 1 integrase (Human immunodeficiency virus 1)
# ASSAY_EXPLANATION: Inhibition of HIV1 integrase 3'-end processing activity
MEASURE: IC50 (µM)

INSERT INTO results (chem_smiles, reported_measurement) VALUES
  ('COC(=O)c1ccccc1-c1ccc(C(=O)CC(=O)C(=O)O)cc1[N+](=O)[O-]', 26),
  ('Cc1cc(C)c2[nH]c(=O)c3ccccc3c2c1', 1000),
  ('O=C(O)C(=O)CC(=O)c1ccc2c(ccc3ccccc32)c1', 23),
  ('O=C(O)C(=O)CC(=O)c1c2ccccc2cc2ccccc12', 54),
  ('O=c1[nH]c2ccc(Br)cc2c2ccccc12', 225),
  ('Nc1ccc2[nH]c(=O)c3ccccc3c2c1', 206),
  ('O=C(O)C(=O)CC(=O)c1ccc2cc3ccccc3cc2c1', 32),
  ('Cc1cc(C)c2[nH]c(=O)c3cc(C#N)ccc3c2c1', 300);

1 = Cc1ccc2oc3nc(C)c(C(=O)CC(=O)C(=O)O)cc3c(=O)c2c1
2 = Cc1cccc2c1[nH]c(=O)c1ccc(C(F)(F)F)cc12
Task: Recorded IC50 values differ for 1 and 2 ; which one is higher? I would appreciate it if you answered with the label of your choice.
Output: 2

I = O=C(O)C(=O)CC(=O)c1ccc2ccc3ccccc3c2c1
II = Cc1ccc2cc(C(=O)CC(=O)C(=O)O)ccc2c1
Task: Please let me know which one, I or II , has a lower measured IC50 value. I would appreciate it if you answered with the label of your choice.
Output: II
(II: 11 µM, I: 25 µM)

====

# Test system: Vero
# ASSAY_EXPLANATION: Cytotoxicity against Vero cells after 3 days
# Type: cell-based
# ASSAY_CONTEXT: Chlorocebus sabaeus, 72 h
Entries and their IC50 values follow.
Express your answer in µM, writing the number without its unit.

INSERT INTO measurements (compound, reported_measurement) VALUES
  ('O=C(O)C(=O)CC(=O)c1ccc2c(ccc3ccccc32)c1', 10.8);

Please examine the following record next.
Task: Could you share which IC50 value was measured for Cc1cn([C@H]2C[C@H](N=[N+]=[N-])[C@@H](CO)O2)c(=O)[nH]c1=O [ZIDOVUDINE] ?
Output: 50

====

Entries and their pIC50 values follow.
# EXPERIMENTAL_SYSTEM: Human immunodeficiency virus type 1 integrase (Human immunodeficiency virus 1)
# ASSAY_EXPLANATION: Inhibition of HIV1 integrase 3'-end processing activity
pIC50: −log10 of the molar value.

Please review the following examples before continuing.
INSERT INTO measurements (chem_smiles, reported_measurement) VALUES
  ('O=c1[nH]c2ccc(C(F)(F)F)cc2c2ccccc12', '< 3.00'),
  ('O=C(O)C(=O)CC(=O)c1ccc2ccc3cccc4ccc1c2c34', 5.15);

Task: Could you share which pIC50 value was measured for CC(=O)Nc1ccc2[nH]c(=O)c3ccccc3c2c1 ?
Output: < 3.30

====

# EXPERIMENTAL_SYSTEM: Human immunodeficiency virus type 1 integrase (Human immunodeficiency virus 1)
# ASSAY_EXPLANATION: Inhibition of HIV1 integrase 3'-end processing activity
pIC50: −log10 of the molar value.
MEASURE: pIC50

Please review the following examples before continuing.
INSERT INTO measurements (chem_smiles, measure, reported_measurement) VALUES
  ('O=C(O)C(=O)CC(=O)c1cc2ccccc2c2ccccc12', 'pIC50', 5.05),
  ('COC(=O)C(=O)CC(=O)c1ccc(-c2ccccc2C(=O)OC)c([N+](=O)[O-])c1', 'pIC50', 3.99),
  ('N#Cc1ccc(CN(Cc2ccc(C#N)cc2)c2ccc3[nH]c(=O)c4ccccc4c3c2)cc1', 'pIC50', 3.30),
  ('O=c1[nH]c2ccc(Cl)cc2c2ccccc12', 'pIC50', 3.30);

A = O=C(O)C(=O)CC(=O)c1ccc2c(c1)[nH]c(=O)c1ccccc12
B = O=C(O)C(=O)CC(=O)c1ccc2ccccc2c1
Task: Recorded pIC50 values differ for A and B ; which one is higher? I would appreciate it if you answered with the label of your choice.
Output: B
(B: 4.27, A: 3.40)

====

# EXPERIMENTAL_SYSTEM: Human immunodeficiency virus type 1 integrase (Human immunodeficiency virus 1)
# ASSAY_EXPLANATION: Inhibition of HIV1 integrase strand transfer activity
MEASURE: IC50 (µM)

INSERT INTO assay_data (chem_smiles, reported_measurement) VALUES
  ('O=C(O)C(=O)CC(=O)c1ccc2ccc3ccccc3c2c1', 2.7);

A = N#Cc1ccc(CN(Cc2ccc(C#N)cc2)c2ccc3[nH]c(=O)c4ccccc4c3c2)cc1
B = O=C(O)C(=O)CC(=O)c1ccc(N2CCOCC2)cc1
Task: Recorded IC50 values differ for A and B ; which one is higher? I would appreciate it if you answered with the label of your choice.
Output: A

A = Cc1ccc2cc(C(=O)CC(=O)C(=O)O)ccc2c1
B = COC(=O)C(=O)CC(=O)c1ccc(-c2ccccc2C(=O)OC)c([N+](=O)[O-])c1
Task: Please let me know which one, A or B , has a lower measured IC50 value. I would appreciate it if you answered with the label of your choice.
Output: A
(A: 3 µM, B: 27 µM)

====

# EXPERIMENTAL_SYSTEM: Human immunodeficiency virus type 1 integrase (Human immunodeficiency virus 1)
# ASSAY_EXPLANATION: Inhibition of HIV1 integrase strand transfer activity
pIC50: −log10 of the molar value.
MEASURE: pIC50

Please review the following examples before continuing.
INSERT INTO measurements (chem_smiles, experimental_system, reported_measurement) VALUES
  ('O=C(O)C(=O)CC(=O)c1cc2ccccc2c2ccccc12', 'Human immunodeficiency virus type 1 integrase (Human immunodeficiency virus 1)', 6.42),
  ('Cc1ccc2oc3nc(C)c(C(=O)CC(=O)C(=O)O)cc3c(=O)c2c1', 'Human immunodeficiency virus type 1 integrase (Human immunodeficiency virus 1)', 4.80),
  ('O=c1[nH]c2ccc(Cl)cc2c2ccccc12', 'Human immunodeficiency virus type 1 integrase (Human immunodeficiency virus 1)', 4.00),
  ('O=C(O)c1ccc2[nH]c(=O)c3ccccc3c2c1', 'Human immunodeficiency virus type 1 integrase (Human immunodeficiency virus 1)', 3.69);

1 = O=c1[nH]c2ccc(Br)cc2c2ccccc12
2 = O=C(O)C(=O)CC(=O)c1ccc2cc3ccccc3cc2c1
3 = COc1ccc2[nH]c(=O)c3ccccc3c2c1
4 = O=C(O)C(=O)CC(=O)c1ccc2ccc3cccc4ccc1c2c34
Task: Hey, quick one: sort these by pIC50, low to high? Answer by listing the labels in the requested order.
Output: 3, 1, 2, 4
(3: 3.30, 1: 4.11, 2: 4.89, 4: 6.28)

====

# EXPERIMENTAL_SYSTEM: Human immunodeficiency virus type 1 integrase (Human immunodeficiency virus 1, UniProt Q7ZJM1)
# ASSAY_EXPLANATION: Inhibition of HIV1 integrase 3'-end processing activity
pIC50: −log10 of the molar value.
Entries and their pIC50 values follow.

INSERT INTO results (chem_smiles, measure, reported_measurement) VALUES
  ('N#Cc1ccc(CNc2ccc3[nH]c(=O)c4ccccc4c3c2)cc1', 'pIC50', '< 3.30');

Task: Could you share which pIC50 value was measured for N#Cc1ccc2[nH]c(=O)c3ccccc3c2c1 ?
Output: < 3.30

Task: Could you share which pIC50 value was measured for COC(=O)C(=O)CC(=O)c1ccc(Br)c(CC(=O)c2ccccc2)c1 ?
Output: < 3.30

Task: Could you share which pIC50 value was measured for O=C(O)C(=O)CC(=O)c1ccc(N2CCOCC2)cc1 ?
Output: < 4.00

Task: Could you share which pIC50 value was measured for Cc1cc(C)c2[nH]c(=O)c3ccc(C(F)(F)F)cc3c2c1 ?
Output: < 3.30

Task: Could you share which pIC50 value was measured for COc1ccc2[nH]c(=O)c3ccccc3c2c1 ?
Output: < 3.30

====

# Test system: Vero
# ASSAY_EXPLANATION: Cytotoxicity against Vero cells after 3 days
# Assay type: cell-based
# ASSAY_CONTEXT: Chlorocebus sabaeus, 72 h
MEASURE: IC50

INSERT INTO assay_data (chem_smiles, measure, reported_measurement) VALUES
  ('O=C(O)C(=O)CC(=O)c1ccc2ccc3ccccc3c2c1', 'IC50', '> 100 µM'),
  ('O=C(O)C(=O)CC(=O)c1cc2ccccc2c2ccccc12', 'IC50', '> 100 µM');

Task: Could you share which IC50 value was measured for O=C(O)C(=O)CC(=O)c1c2ccccc2cc2ccccc12 ?
Output: > 100 µM
